- Test system: MMP-2CD (gelatinase A catalytic domain) (Homo sapiens)
- Sequence (P08253 with tags, fused parts or gaps DEL222-396): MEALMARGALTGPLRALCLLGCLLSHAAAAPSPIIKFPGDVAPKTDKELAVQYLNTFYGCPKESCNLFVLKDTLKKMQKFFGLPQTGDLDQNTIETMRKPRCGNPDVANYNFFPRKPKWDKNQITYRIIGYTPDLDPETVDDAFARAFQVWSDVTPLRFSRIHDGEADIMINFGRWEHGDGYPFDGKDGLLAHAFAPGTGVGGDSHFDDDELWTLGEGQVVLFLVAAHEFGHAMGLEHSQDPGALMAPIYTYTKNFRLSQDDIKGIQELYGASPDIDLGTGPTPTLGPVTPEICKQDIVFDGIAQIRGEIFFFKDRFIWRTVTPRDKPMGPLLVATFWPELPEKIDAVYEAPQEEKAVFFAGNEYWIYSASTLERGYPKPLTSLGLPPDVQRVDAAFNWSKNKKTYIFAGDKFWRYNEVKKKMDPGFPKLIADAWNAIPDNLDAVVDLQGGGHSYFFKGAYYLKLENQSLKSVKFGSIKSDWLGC
- Experiment description: MMP inhibition, thiopeptolide substrate assay
- Type: biochemical
- Run parameters: thiopeptolide substrate Ac-Pro-Leu-Gly-thioester-Leu-Leu-Gly-OEt
Would you mind telling me the reported IC50 of each entry?

Sample "O=C(O)CCC(=NO)c1ccc2c3c(oc2c1)CCCC3" — what was its IC50?
0.0183 µM

Same read-out for O=C(CC(CCCc1ccccc1)C(=O)O)c1ccc2c3c(oc2c1)CCCC3 (stereo not drawn) ?
0.096 µM

Same read-out for CN1C(=O)N(CC(CC(=O)c2ccc3c4c(oc3c2)CCCC4)C(=O)O)C(=O)C1(C)C (stereo not drawn) ?
0.0585 µM
